Tested system: Na⁺/H⁺ exchanger (Rattus norvegicus)
Construct: using the vascular smooth muscle cells isolated from the rat thoracic aorta; endogenous in cells; host or cells: primary vascular smooth muscle cells isolated from rat thoracic aorta
Sequence (P26431 whole entry): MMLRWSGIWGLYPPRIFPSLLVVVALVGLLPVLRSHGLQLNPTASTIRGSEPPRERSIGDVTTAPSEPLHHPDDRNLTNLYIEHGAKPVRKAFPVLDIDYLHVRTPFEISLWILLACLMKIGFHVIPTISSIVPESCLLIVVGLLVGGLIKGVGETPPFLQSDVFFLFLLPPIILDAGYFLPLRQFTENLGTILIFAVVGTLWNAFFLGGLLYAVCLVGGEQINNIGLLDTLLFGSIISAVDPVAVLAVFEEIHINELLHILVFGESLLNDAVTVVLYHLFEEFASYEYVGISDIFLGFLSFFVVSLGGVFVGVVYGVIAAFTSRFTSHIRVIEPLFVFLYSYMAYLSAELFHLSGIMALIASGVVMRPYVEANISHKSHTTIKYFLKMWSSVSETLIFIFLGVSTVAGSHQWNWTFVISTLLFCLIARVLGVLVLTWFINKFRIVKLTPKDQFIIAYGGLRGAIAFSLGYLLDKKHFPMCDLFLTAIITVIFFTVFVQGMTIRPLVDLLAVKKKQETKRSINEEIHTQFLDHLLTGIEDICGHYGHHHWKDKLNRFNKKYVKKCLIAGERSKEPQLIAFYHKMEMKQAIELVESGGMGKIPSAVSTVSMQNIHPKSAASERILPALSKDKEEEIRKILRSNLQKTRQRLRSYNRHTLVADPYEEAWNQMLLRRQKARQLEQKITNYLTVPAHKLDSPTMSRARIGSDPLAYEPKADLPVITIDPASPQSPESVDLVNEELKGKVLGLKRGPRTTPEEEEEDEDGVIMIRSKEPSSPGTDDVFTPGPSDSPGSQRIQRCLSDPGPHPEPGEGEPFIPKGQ
Assay info: Inhibition of Na⁺/H⁺ exchanger activity in vitro (change in intracellular pH during acid loading)
Assay type: cell-based

Compound: CN(C)c1nc(N)c(C(=O)N=C(N)N)nc1Cl [Dimethyl amiloride, reference compound]
IC50: 600 nM

* * *

Tested system: Na⁺/H⁺ exchanger (Rattus norvegicus)
Construct: using the vascular smooth muscle cells isolated from the rat thoracic aorta; endogenous in cells; host or cells: primary vascular smooth muscle cells isolated from rat thoracic aorta
Assay info: Inhibition of Na⁺/H⁺ exchanger activity in vitro (change in intracellular pH during acid loading)
Assay type: cell-based
Test settings: vascular smooth muscle cells isolated from the rat thoracic aorta; change in intracellular pH during acid loading; read-out: IC₅₀
pIC50: −log10 of the molar value. Where a name gives a salt, the structure may show the parent alone.
Readout label: pIC50

Compound: Cn1c(C(=O)N=C(N)N)cc2ccccc21 [Example 1, hydrochloride]
Tested system: Na⁺/H⁺ exchanger (Rattus norvegicus)
Meas value: 7.24
--
Compound: Cn1c(C(=O)NC(=N)N)cc2c(F)cccc21 [Example 55, hydrochloride]
Tested system: Na⁺/H⁺ exchanger (Rattus norvegicus)
Meas value: 7.70
--
Compound: COc1cccc2c1cc(C(=O)N=C(N)N)n2C [Example 22, hydrochloride]
Tested system: Na⁺/H⁺ exchanger (Rattus norvegicus)
Meas value: 5.68
--
Compound: Cn1c(C(=O)N=C(N)N)cc2cccc(Cl)c21 [Example 8, hydrochloride]
Tested system: Na⁺/H⁺ exchanger (Rattus norvegicus)
Meas value: 7.30
--
Compound: NC(N)=NC(=O)c1nc(Cl)c(N2CCCCCC2)nc1N [5-Hexamethylene amiloride, reference compound]
Tested system: Na⁺/H⁺ exchanger (Rattus norvegicus)
Meas value: 6.85
--
Compound: Cn1c(C(=O)N=C(N)N)cc2c(C(F)(F)F)cccc21 [Example 29, hydrochloride]
Tested system: Na⁺/H⁺ exchanger (Rattus norvegicus)
Meas value: 9.05
--
Compound: Cn1c(C(=O)N=C(N)N)cc2c(Cl)ccc(OCCCN)c21 [Example 118, hydrochloride]
Tested system: Na⁺/H⁺ exchanger (Rattus norvegicus)
Meas value: 8.00

Entry source: patent EP0622356A1
